Recorded measurements of EC50, one per entry
- Assayed Target: CFTR ΔF508 mutant (Homo sapiens, UniProt P13569, DEL508-508)
- Construct: expressed in transfected cells; host or cells: CFBE41o- (adenoviral transduction)
- Sequence (P13569 with tags, fused parts or gaps DEL508-508): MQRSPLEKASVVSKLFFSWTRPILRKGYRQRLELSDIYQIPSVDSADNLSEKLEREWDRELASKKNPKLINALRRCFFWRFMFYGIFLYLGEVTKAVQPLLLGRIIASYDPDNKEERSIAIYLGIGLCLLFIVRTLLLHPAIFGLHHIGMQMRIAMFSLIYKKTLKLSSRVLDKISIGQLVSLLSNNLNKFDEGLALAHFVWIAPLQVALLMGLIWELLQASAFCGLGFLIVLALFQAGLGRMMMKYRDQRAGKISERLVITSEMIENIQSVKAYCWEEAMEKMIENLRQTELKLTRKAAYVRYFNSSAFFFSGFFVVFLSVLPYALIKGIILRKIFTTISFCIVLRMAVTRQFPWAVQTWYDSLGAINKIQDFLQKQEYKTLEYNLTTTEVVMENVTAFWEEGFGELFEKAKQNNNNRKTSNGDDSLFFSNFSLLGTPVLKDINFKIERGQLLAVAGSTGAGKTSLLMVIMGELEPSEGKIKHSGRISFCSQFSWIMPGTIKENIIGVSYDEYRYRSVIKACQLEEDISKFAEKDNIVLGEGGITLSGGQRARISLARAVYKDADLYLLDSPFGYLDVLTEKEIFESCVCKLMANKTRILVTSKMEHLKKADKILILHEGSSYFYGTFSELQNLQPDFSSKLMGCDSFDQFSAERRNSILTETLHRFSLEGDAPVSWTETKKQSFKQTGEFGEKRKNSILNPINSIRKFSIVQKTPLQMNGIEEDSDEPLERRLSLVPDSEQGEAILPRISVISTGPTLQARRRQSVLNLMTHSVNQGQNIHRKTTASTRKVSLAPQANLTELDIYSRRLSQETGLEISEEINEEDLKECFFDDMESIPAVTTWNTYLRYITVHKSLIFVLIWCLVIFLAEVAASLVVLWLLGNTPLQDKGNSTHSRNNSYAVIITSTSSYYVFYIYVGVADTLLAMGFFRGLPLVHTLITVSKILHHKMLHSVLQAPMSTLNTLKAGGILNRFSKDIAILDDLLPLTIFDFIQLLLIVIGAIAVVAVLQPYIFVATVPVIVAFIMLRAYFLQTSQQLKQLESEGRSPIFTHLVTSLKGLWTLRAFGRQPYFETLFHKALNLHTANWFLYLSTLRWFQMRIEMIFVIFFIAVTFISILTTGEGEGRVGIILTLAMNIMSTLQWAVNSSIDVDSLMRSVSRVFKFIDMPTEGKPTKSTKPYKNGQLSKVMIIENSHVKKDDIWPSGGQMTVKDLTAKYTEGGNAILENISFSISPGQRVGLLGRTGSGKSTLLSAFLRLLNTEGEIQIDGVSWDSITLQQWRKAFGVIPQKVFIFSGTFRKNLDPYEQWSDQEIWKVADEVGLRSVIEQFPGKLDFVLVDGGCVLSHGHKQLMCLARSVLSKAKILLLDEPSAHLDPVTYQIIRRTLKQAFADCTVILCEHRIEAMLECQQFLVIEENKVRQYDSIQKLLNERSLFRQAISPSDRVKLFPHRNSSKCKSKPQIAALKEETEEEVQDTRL
- Assay Text: YFP-halide influx assay for the CFTR-ΔF508 mutation (384 well, FDSS/μCell)
- Type: cell-based
- Measurement Setup: CFBE41o- cells, CFTR-ΔF508, 1×D-PBS, fluorescence after 36 seconds
Measurement Label: EC50 (nM)

- Molecule: "NC(=O)c1cc(S(=O)(=O)N2CCOCC2)sc1NC(=O)c1ccc(F)cc1O [Compound 198]"
  Measured Value: 20.2
- Molecule: "Cc1ccc(S(=O)(=O)c2cc(C(N)=O)c(NC(=O)C(C)(C)O)s2)cc1 [Compound 316]"
  Measured Value: 31.1
- Molecule: "CC(O)C(=O)Nc1sc(S(=O)(=O)c2ccc(OC(F)F)cc2)cc1C(N)=O (centres unmarked) [Compound 403]"
  Measured Value: 27.5
- Molecule: "CC(C)(O)C(=O)Nc1sc(S(=O)(=O)c2cc(Cl)ncc2C#N)cc1C(N)=O [Compound 432]"
  Measured Value: 47.9
- Molecule: "CC(C)(O)C(=O)Nc1sc(S(=O)(=O)c2cccc3c2OC(F)(F)O3)cc1C(N)=O [Compound 330]"
  Measured Value: 5.3
- Molecule: "CN(Cc1ccc(F)cc1F)S(=O)(=O)c1cc(C(N)=O)c(NC(=O)c2cc[nH]n2)s1 [Compound 172]"
  Measured Value: 42
- Molecule: "CC(C)(O)C(=O)Nc1sc(S(=O)(=O)c2ccc(OC(F)(F)F)cc2F)cc1C(N)=O [Compound 375]"
  Measured Value: 7.53
- Molecule: "CC(O)C(=O)Nc1sc(S(=O)(=O)c2ccc(C(F)(F)F)cc2)cc1C(N)=O (centres unmarked) [Compound 398]"
  Measured Value: 22.8

---

- Assayed Target: CFTR ΔF508 mutant (Homo sapiens, UniProt P13569, DEL508-508)
- Construct: expressed in transfected cells; host or cells: CFBE41o- (adenoviral transduction)
- Assay Text: YFP-halide influx assay for the CFTR-ΔF508 mutation, gluconate buffer
- Assay type: cell-based
- Measurement Setup: CFBE41o- cells, forskolin 10.67 μM
The entries below are paired with their reported EC50.
Measurement Label: EC50

- Compound: "CC(C)(C)OC(=O)N1CCC2(CC1)CCN(S(=O)(=O)c1cc(C(N)=O)c(NC(=O)c3ccccc3F)s1)C2 [Compound 148]"
  Measured Value: "0.344 µM"
- Compound: "CC(C)S(=O)(=O)c1cc(C(N)=O)c(NC(=O)c2ccccc2F)s1 [Compound 163]"
  Measured Value: "0.272 µM"
- Compound: "NC(=O)c1cc(S(=O)(=O)N2CCCCC2)sc1NC(=O)c1ccccc1Cl [Compound 17]"
  Measured Value: "0.265 µM"
- Compound: "COc1ccc(CN(C)S(=O)(=O)c2cc(C(N)=O)c(NC(=O)c3ccccc3F)s2)cc1 [Compound 147]"
  Measured Value: "0.242 µM"
- Compound: "CC(C)(O)C(=O)Nc1sc(S(C)(=O)=O)cc1C(N)=O [Compound 219]"
  Measured Value: "> 1 µM"
- Compound: "NC(=O)c1cc(S(=O)(=O)N2CCOCC2)sc1NC(=O)c1ncccc1F [Compound 77]"
  Measured Value: "3.33 µM"
- Compound: "COc1ccccc1C(=O)Nc1sc(S(=O)(=O)N2CCOCC2)cc1C(N)=O [Compound 48]"
  Measured Value: "0.253 µM"
- Compound: "CC(C)(C)C(=O)Nc1sc(S(=O)(=O)N2CCCCC2)cc1C(N)=O [Compound 29]"
  Measured Value: "0.272 µM"

The values you see were collected from patent US9382254B2.
